The molecules listed here are annotated with their IC50.
# Measured on: Human immunodeficiency virus type 1 reverse transcriptase (Human immunodeficiency virus 1, UniProt Q72547)
# Experimental protocol: Inhibition of HIV1 recombinant wild type reverse transcriptase p66/p51 assessed as reduction in biotin-labeled dUTP incorporation into DNA using polyr(A) x oligo(dT)16 template/primer hybrid
Recorded endpoint: IC50 (nM)

molecule=Cc1ccc(NC(=O)CN2CCC(Nc3nccc(Oc4c(C)cc(C#N)cc4C)n3)CC2)cc1 measurement=181
molecule=Cc1cc(C#N)cc(C)c1Oc1ccnc(NC2CCN(CC(=O)Nc3cccc([N+](=O)[O-])c3)CC2)n1 measurement=156
molecule=Cc1cc(C#N)cc(C)c1Oc1ccnc(NC2CCN(CC(=O)Nc3ccc(C#N)cc3F)CC2)n1 measurement=174
molecule=Cc1cc(C#N)cc(C)c1Oc1ccnc(NC2CCN(CC(=O)Nc3ccc(S(N)(=O)=O)cc3)CC2)n1 measurement=116
molecule=Cc1cc(C#N)cc(C)c1Oc1ccnc(NC2CCN(CC(=O)Nc3ccc(F)cc3)CC2)n1 measurement=204
molecule=Cc1cc(C#N)cc(C)c1Oc1ccnc(NC2CCN(CC(=O)Nc3ccccc3)CC2)n1 measurement=199
molecule=Cc1cc(C#N)cc(C)c1Oc1ccnc(NC2CCN(CC(=O)Nc3ccccc3[N+](=O)[O-])CC2)n1 measurement=193
molecule=Cc1cc(S(N)(=O)=O)ccc1NC(=O)CN1CCC(Nc2nccc(Oc3c(C)cc(C#N)cc3C)n2)CC1 measurement=166
molecule=Cc1cc(C#N)cc(C)c1Oc1ccnc(NC2CCN(CC(=O)Nc3ccc(O)cc3)CC2)n1 measurement=102
molecule=Cc1cc(C#N)cc(C)c1Oc1ccnc(NC2CCN(CC(=O)Nc3ccc([N+](=O)[O-])cc3)CC2)n1 measurement=136
molecule=Cc1cc(C#N)cc(C)c1Oc1ccnc(NC2CCN(CC(=O)Nc3ccccc3F)CC2)n1 measurement=207

###

# System: Human immunodeficiency virus 1
# Experimental protocol: Antiviral activity against wild type HIV1 3B infected in human MT4 cells assessed as protection from virus-induced cytopathicity after 4 days by MTT assay
# Format: functional, organism-based
# Condition details: Human immunodeficiency virus 1, 3B, MT4, 96 h
pEC50: −log10 of the molar value.
// reported pEC50 per item
Recorded endpoint: pEC50

molecule=Cc1cc(C#N)cc(C)c1Oc1ccnc(NC2CCN(CC(=O)Nc3cccc([N+](=O)[O-])c3)CC2)n1 measurement=8.11
molecule=Cc1cc(C#N)cc(C)c1Oc1ccnc(NC2CCN(CC(=O)Nc3ccc(O)cc3)CC2)n1 measurement=8.68
molecule=Cc1cc(C#N)cc(C)c1Oc1ccnc(NC2CCN(CC(=O)Nc3ccccc3[N+](=O)[O-])CC2)n1 measurement=7.38
molecule=Cc1cc(C#N)cc(C)c1Oc1ccnc(NC2CCN(CC(=O)Nc3cccc(Cl)c3)CC2)n1 measurement=8.23
molecule=Cc1cc(C#N)cc(C)c1Oc1ccnc(NC2CCN(CC(=O)Nc3ccccc3)CC2)n1 measurement=8.48

###

// reported log10(CC50 at 96 h) for each item listed
# Experimental protocol: Cytotoxicity against human MT4 cells assessed as reduction of cell viability after 4 days by MTT assay
# Type: cell-based
Recorded endpoint: log10(CC50 at 96 h) (log10 of the value in nM)

molecule=Cc1cccc(NC(=O)CN2CCC(Nc3nccc(Oc4c(C)cc(C#N)cc4C)n3)CC2)c1 recorded_endpoint="log10(CC50 at 96 h)" measurement=3.23
molecule=Cc1cc(C#N)cc(C)c1Oc1ccnc(NC2CCN(CC(=O)Nc3cccc(Cl)c3)CC2)n1 recorded_endpoint="log10(CC50 at 96 h)" measurement=3.10
molecule=Cc1cc(C#N)cc(C)c1Oc1ccnc(NC2CCN(CC(=O)Nc3ccccc3Cl)CC2)n1 recorded_endpoint="log10(CC50 at 96 h)" measurement=3.18
molecule=Cc1cc(C#N)cc(C)c1Oc1ccnc(NC2CCN(CC(=O)Nc3ccc(O)cc3)CC2)n1 recorded_endpoint="log10(CC50 at 96 h)" measurement=3.34
molecule=Cc1ccc(NC(=O)CN2CCC(Nc3nccc(Oc4c(C)cc(C#N)cc4C)n3)CC2)cc1 recorded_endpoint="log10(CC50 at 96 h)" measurement=3.31
molecule=Cc1ccccc1NC(=O)CN1CCC(Nc2nccc(Oc3c(C)cc(C#N)cc3C)n2)CC1 recorded_endpoint="log10(CC50 at 96 h)" measurement=3.10
molecule=Cc1cc(C#N)cc(C)c1Oc1ccnc(NC2CCN(CC(=O)Nc3cc(Cl)cc(Cl)c3)CC2)n1 recorded_endpoint="log10(CC50 at 96 h)" measurement=3.55
molecule=Cc1cc(C#N)cc(C)c1Oc1ccnc(NC2CCN(CC(=O)Nc3ccccc3[N+](=O)[O-])CC2)n1 recorded_endpoint="log10(CC50 at 96 h)" measurement=4.77
molecule=Cc1cc(C#N)cc(C)c1Oc1ccnc(NC2CCN(CC(=O)Nc3ccc([N+](=O)[O-])cc3)CC2)n1 recorded_endpoint="log10(CC50 at 96 h)" measurement=2.71
molecule=Cc1cc(S(N)(=O)=O)ccc1NC(=O)CN1CCC(Nc2nccc(Oc3c(C)cc(C#N)cc3C)n2)CC1 recorded_endpoint="log10(CC50 at 96 h)" measurement=3.21

Data origin, for the record: ChEMBL document CHEMBL3425444
